Give measured 8OG:A repair function score for each item. Keep answers brief.
B1: library; numbered along this chain (parent)
chain: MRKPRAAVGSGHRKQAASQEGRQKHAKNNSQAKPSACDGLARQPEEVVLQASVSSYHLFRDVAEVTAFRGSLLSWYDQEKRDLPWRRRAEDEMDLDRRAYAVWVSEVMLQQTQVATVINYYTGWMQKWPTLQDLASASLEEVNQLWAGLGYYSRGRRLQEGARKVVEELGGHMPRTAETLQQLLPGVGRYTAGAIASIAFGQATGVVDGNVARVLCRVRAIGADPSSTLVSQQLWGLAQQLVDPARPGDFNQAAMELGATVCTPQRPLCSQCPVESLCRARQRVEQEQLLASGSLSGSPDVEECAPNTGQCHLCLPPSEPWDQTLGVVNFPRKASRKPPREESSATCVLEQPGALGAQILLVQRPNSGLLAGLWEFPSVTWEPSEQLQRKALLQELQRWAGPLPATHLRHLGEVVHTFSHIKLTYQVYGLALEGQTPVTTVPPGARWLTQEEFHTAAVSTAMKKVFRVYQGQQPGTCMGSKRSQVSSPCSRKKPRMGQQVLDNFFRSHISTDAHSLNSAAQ

variants of: B1; assay: 8OG:A repair function score (normalized; synonymous = 0, nonsense = -1) (normalized log-likelihood score); higher = more repair activity (WT-like); details: with 8OG:A DNA repair reporter (GFP) in HEK-293 MUTYH KO cells;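 note: cells sorted at 72 h after reporter transfection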

Respond only with 8OG:A repair function score recorded for L408Q
-0.293

Respond only with 8OG:A repair function score recorded for S292H
-0.00367

Respond only with 8OG:A repair function score recorded for V62G
0.0052

Respond only with 8OG:A repair function score recorded for S138V
-0.188

Respond only with 8OG:A repair function score recorded for S153M
-0.237

Respond only with 8OG:A repair function score recorded for V65C
-0.00739

Respond only with 8OG:A repair function score recorded for F504A
0.00928

Respond only with 8OG:A repair function score recorded for A334F
-0.0391

Respond only with 8OG:A repair function score recorded for R467S
-0.0606

Respond only with 8OG:A repair function score recorded for G497Y
-0.0861

Respond only with 8OG:A repair function score recorded for R87W
-0.0564

Respond only with 8OG:A repair function score recorded for E341H
0.0806

Respond only with 8OG:A repair function score recorded for L215T
-0.86

Respond only with 8OG:A repair function score recorded for D224C
-0.955

Respond only with 8OG:A repair function score recorded for S276W
-0.0968

Respond only with 8OG:A repair function score recorded for P488V
-0.00252

Respond only with 8OG:A repair function score recorded for V415S
0.0289

Respond only with 8OG:A repair function score recorded for K3E
-0.174

Respond only with 8OG:A repair function score recorded for S459A
-0.218

Respond only with 8OG:A repair function score recorded for L387T
0.0729

Respond only with 8OG:A repair function score recorded for P267K
-1.06

Respond only with 8OG:A repair function score recorded for A291L
-0.0339

Respond only with 8OG:A repair function score recorded for A223F
-0.516

Respond only with 8OG:A repair function score recorded for Q521D
-0.0822

Respond only with 8OG:A repair function score recorded for K127D
-1.32

Respond only with 8OG:A repair function score recorded for Q288M
-0.03

Respond only with 8OG:A repair function score recorded for P306L
-0.00346

Respond only with 8OG:A repair function score recorded for A245N
-0.0246

Respond only with 8OG:A repair function score recorded for S231N
0.155

Respond only with 8OG:A repair function score recorded for P317G
-0.0274

Respond only with 8OG:A repair function score recorded for L393I
0.0907

Respond only with 8OG:A repair function score recorded for C272Q
-1.09

Respond only with 8OG:A repair function score recorded for I198M
-0.189

Respond only with 8OG:A repair function score recorded for Q388I
0.175

Respond only with 8OG:A repair function score recorded for G70C
0.00567

Respond only with 8OG:A repair function score recorded for G412Y
-0.721

Respond only with 8OG:A repair function score recorded for Y151G
-1.03

Respond only with 8OG:A repair function score recorded for G70F
-0.115

Respond only with 8OG:A repair function score recorded for P377Y
-0.964

Respond only with 8OG:A repair function score recorded for E256I
-0.901

Respond only with 8OG:A repair function score recorded for T263R
-0.0312

Respond only with 8OG:A repair function score recorded for Q132Y
-0.125

Respond only with 8OG:A repair function score recorded for G248E
-0.978

Respond only with 8OG:A repair function score recorded for Y56D
-0.0985

Respond only with 8OG:A repair function score recorded for N251L
-0.938

Respond only with 8OG:A repair function score recorded for T191M
-0.127

Respond only with 8OG:A repair function score recorded for E285M
-9.17e-05

Respond only with 8OG:A repair function score recorded for R98I
-0.145

Respond only with 8OG:A repair function score recorded for L290G
-0.0171

Respond only with 8OG:A repair function score recorded for T179I
-0.04

Respond only with 8OG:A repair function score recorded for E382Y
0.217

Respond only with 8OG:A repair function score recorded for W124Q
-0.557

Respond only with 8OG:A repair function score recorded for V348H
-1.31

Respond only with 8OG:A repair function score recorded for P44G
-0.111

Respond only with 8OG:A repair function score recorded for V500W
-0.015

Respond only with 8OG:A repair function score recorded for L72G
-1.17

Respond only with 8OG:A repair function score recorded for G155K
-0.654

Respond only with 8OG:A repair function score recorded for E303I
-0.101

Respond only with 8OG:A repair function score recorded for Q113I
-0.279

Respond only with 8OG:A repair function score recorded for H57N
-0.729

Respond only with 8OG:A repair function score recorded for L49K
-0.236

Respond only with 8OG:A repair function score recorded for E167H
-0.0317

Respond only with 8OG:A repair function score recorded for A203C
-0.101

Respond only with 8OG:A repair function score recorded for Q397M
-0.301

Respond only with 8OG:A repair function score recorded for A99S
-0.124

Respond only with 8OG:A repair function score recorded for V414Y
-0.314

Respond only with 8OG:A repair function score recorded for I359W
0.0132

Respond only with 8OG:A repair function score recorded for Q397V
0.0994

Respond only with 8OG:A repair function score recorded for E140F
-0.353

Respond only with 8OG:A repair function score recorded for C314G
-0.468

Respond only with 8OG:A repair function score recorded for R69H
-1.89

Respond only with 8OG:A repair function score recorded for R340P
-0.328

Respond only with 8OG:A repair function score recorded for Q50P
0.126

Respond only with 8OG:A repair function score recorded for R157K
-0.0295

Respond only with 8OG:A repair function score recorded for F330Q
-0.638

Respond only with 8OG:A repair function score recorded for F200K
-0.874

Respond only with 8OG:A repair function score recorded for D300L
-0.189

Respond only with 8OG:A repair function score recorded for S226I
-0.309
